- PROTOCOL_TEXT: Terminal half-life in Wistar rat plasma at 3 mg/kg, po or iv measured upto 5 hrs by HPLC-MS/MS analysis
- Type: ADME, organism-based
- CONDITION_DESCRIPTION: read-out: beta t1/2 (converted)
MEASURE_NAME: half-life
Write the numeric value and append its unit.

Data request, read-out half-life, for C[C@]12CC[C@@H]3c4ccc(OCc5ccccn5)cc4CC[C@H]3[C@@H]1CC[C@@H]2N1CCCC1 1.5 h

----------
- Species: Rattus norvegicus
- PROTOCOL_TEXT: Displacement of [3H]quinuclidinyl benzilate from Wistar rat cortex muscarinic AChR at 1 uM by liquid scintillation counting analysis relative to control
- Assay type: tissue-based
Reported Activity is given for each of the following molecules.
Please state the figure in %; there is no need to write the unit.

Example entries begin here.
MOLECULE: C[C@@]12CC[C@@H]3c4ccc(OCCCN5CCCC5)cc4CC[C@H]3[C@@H]1CCC2N1CCCC1 (stereo partly specified)
Activity (%): 71

MOLECULE: C[C@H]1[C@H]2CC[C@H]3[C@@H]4CC=C5C[C@@H](N(C)C)CC[C@]5(C)[C@H]4CC[C@]23CN1C
Activity (%): 84

Data request, read-out Activity, for C[C@]12CC[C@@H]3c4ccc(OCc5ccccc5)cc4CC[C@H]3[C@@H]1CC[C@@H]2N1CCCC1 5

Data request, read-out Activity, for C[C@]12CC[C@@H]3c4ccc(OCCCN5CCCC5)cc4CC[C@H]3[C@@H]1CC[C@@H]2N1CCCC1 74

Data request, read-out Activity, for C[C@@H]1Cc2cc(OCCCN3CCCC3)ccc2[C@H]2CC[C@]3(C)[C@@H](N4CCCC4)CC[C@H]3[C@H]12 72

Data request, read-out Activity, for C[C@]12CC[C@@H]3c4ccc(OCCCN5CCCCCC5)cc4CC[C@H]3[C@@H]1CC[C@@H]2N1CCCC1 77

----------
- SYSTEM_TESTED: Histamine H3 receptor (Homo sapiens, UniProt Q9Y5N1)
- Sequence (Q9Y5N1 whole entry): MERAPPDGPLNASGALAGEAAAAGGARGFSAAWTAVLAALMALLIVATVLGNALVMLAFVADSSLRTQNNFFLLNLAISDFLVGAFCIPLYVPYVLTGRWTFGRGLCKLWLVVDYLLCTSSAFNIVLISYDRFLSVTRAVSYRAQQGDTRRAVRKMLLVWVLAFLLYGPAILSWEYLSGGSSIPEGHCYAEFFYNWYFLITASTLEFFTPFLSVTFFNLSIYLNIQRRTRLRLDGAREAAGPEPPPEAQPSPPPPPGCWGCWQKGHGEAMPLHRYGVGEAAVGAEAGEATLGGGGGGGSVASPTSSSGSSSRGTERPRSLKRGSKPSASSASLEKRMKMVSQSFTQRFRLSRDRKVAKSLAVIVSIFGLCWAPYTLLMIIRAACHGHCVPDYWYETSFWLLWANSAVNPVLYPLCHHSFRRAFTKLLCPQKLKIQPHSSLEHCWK
- PROTOCOL_TEXT: Inverse agonist activity at recombinant human histamine H3 receptor expressed in CHO-K1 cells preincubated for 10 mins followed by [35S]GTPgammaS addition and measured after 60 mins by TopCount NXT based scintillation analysis
MEASURE_NAME: EC50 (pM)
Please state the figure in pM; there is no need to write the unit.

Example entries begin here.
COMPOUND: C[C@@]12CC[C@@H]3c4ccc(OCCCN5CCCC5)cc4CC[C@H]3[C@@H]1CCC2N1CCCC1 (some centres undefined)
SYSTEM_TESTED: Histamine H3 receptor (Homo sapiens, UniProt Q9Y5N1)
MEASURE_NAME: EC50
UNIT: pM
RESULT: 800

COMPOUND: C[C@]12CC[C@@H]3c4ccc(OCCCN5CCCC5)cc4CC[C@H]3[C@@H]1CC[C@@H]2N1CCCC1
SYSTEM_TESTED: Histamine H3 receptor (Homo sapiens, UniProt Q9Y5N1)
MEASURE_NAME: EC50
UNIT: pM
RESULT: 100

COMPOUND: C[C@]12CC[C@@H]3c4ccc(OCCCN5CCC(C(N)=O)CC5)cc4CC[C@H]3[C@@H]1CC[C@@H]2N1CCCC1
SYSTEM_TESTED: Histamine H3 receptor (Homo sapiens, UniProt Q9Y5N1)
MEASURE_NAME: EC50
UNIT: pM
RESULT: 3900

COMPOUND: C[C@]12CC[C@@H]3c4ccc(OCCCN5CCNC(=O)C5)cc4CC[C@H]3[C@@H]1CC[C@@H]2N1CCCC1
SYSTEM_TESTED: Histamine H3 receptor (Homo sapiens, UniProt Q9Y5N1)
MEASURE_NAME: EC50
UNIT: pM
RESULT: 600

COMPOUND: CC[C@]12CC[C@@H]3c4ccc(OCCCN5CCCC5)cc4CC[C@H]3[C@@H]1CC[C@@H]2N1CCCC1
SYSTEM_TESTED: Histamine H3 receptor (Homo sapiens, UniProt Q9Y5N1)
MEASURE_NAME: EC50
UNIT: pM
RESULT: 900

COMPOUND: CC1CCCN1CCCOc1ccc2c(c1)CC[C@@H]1[C@@H]2CC[C@]2(C)[C@@H](N3CCCC3)CC[C@@H]12 (mixture of isomers)
SYSTEM_TESTED: Histamine H3 receptor (Homo sapiens, UniProt Q9Y5N1)
MEASURE_NAME: EC50
UNIT: pM
RESULT: 400

COMPOUND: C[C@]12CC[C@@H]3c4ccc(OCCCN5CCC(O)CC5)cc4CC[C@H]3[C@@H]1CC[C@@H]2N1CCCC1
SYSTEM_TESTED: Histamine H3 receptor (Homo sapiens, UniProt Q9Y5N1)
MEASURE_NAME: EC50
UNIT: pM
RESULT: 4400

COMPOUND: C[C@]12CC[C@@H]3c4ccc(OCCN5CCCC5)cc4CC[C@H]3[C@@H]1CC[C@@H]2N1CCCC1
SYSTEM_TESTED: Histamine H3 receptor (Homo sapiens, UniProt Q9Y5N1)
MEASURE_NAME: EC50
UNIT: pM
RESULT: 300

Data request, read-out EC50, for C[C@]12CC[C@@H]3c4ccc(OCc5ccccn5)cc4CC[C@H]3[C@@H]1CC[C@@H]2N1CCCC1 1000

----------
Reported Ki is given for each of the following compounds.
- SYSTEM_TESTED: Histamine H3 receptor (Homo sapiens)
- PROTOCOL_TEXT: Displacement of N-alpha-[methyl-3H]-methylhistamine dihydrochloride from recombinant human histamine H3 receptor expressed in CHO-K1 cells assessed as inhibition constant incubated for 30 mins by liquid scintillation analysis
Please state the figure in nM; there is no need to write the unit.

STRUCTURE_AS_SMILES: C[C@]12CC[C@@H]3c4ccc(OCCCCN5CCCC5)cc4CC[C@H]3[C@@H]1CC[C@@H]2N1CCCC1
Ki, nM: 0.8

STRUCTURE_AS_SMILES: CC[C@]12CC[C@@H]3c4ccc(OCCCN5CCCC5)cc4CC[C@H]3[C@@H]1CC[C@@H]2N1CCCC1
Ki, nM: 0.8

Alright, here's another compound for you.
Data request, read-out Ki, for C[C@]12CC[C@@H]3c4ccc(OCc5cccnc5)cc4CC[C@H]3[C@@H]1CC[C@@H]2N1CCCC1 3

----------
- Organism: Rattus norvegicus
- PROTOCOL_TEXT: Displacement of [3H]quinuclidinyl benzilate from Wistar rat cortex muscarinic AChR at 1 uM by liquid scintillation counting analysis relative to control
- Format: tissue-based
MEASURE_NAME: Activity
Write the numeric value and append its unit.

Example entries begin here.
COMPOUND: C[C@]12CC[C@@H]3c4ccc(OCCCN5CCC(C(N)=O)CC5)cc4CC[C@H]3[C@@H]1CC[C@@H]2N1CCCC1
Activity: 37%
--
COMPOUND: C[C@]12CC[C@@H]3c4ccc(OCCCN5CCC(O)C5)cc4CC[C@H]3[C@@H]1CC[C@@H]2N1CCCC1 (stereo not given in full)
Activity: 64%
--
COMPOUND: CC[C@]12CC[C@@H]3c4ccc(OCCCN5CCCC5)cc4CC[C@H]3[C@@H]1CC[C@@H]2N1CCCC1
Activity: 69%
--
COMPOUND: CC1CCCN1CCCOc1ccc2c(c1)CC[C@@H]1[C@@H]2CC[C@]2(C)[C@@H](N3CCCC3)CC[C@@H]12 (mixture of isomers)
Activity: 69%

Alright, here's another compound for you.
Data request, read-out Activity, for C[C@]12CC[C@@H]3c4ccc(OCCCN5CCNC(=O)C5)cc4CC[C@H]3[C@@H]1CC[C@@H]2N1CCCC1 73%
